Biological target: T1, human CD19 on CHO-K1-human CD19 cells (human, UniProt P15391 20-556)
T1 construct: whole, on cells; also called CHO-K1-human CD19-2C8
T1 sequence (looked up): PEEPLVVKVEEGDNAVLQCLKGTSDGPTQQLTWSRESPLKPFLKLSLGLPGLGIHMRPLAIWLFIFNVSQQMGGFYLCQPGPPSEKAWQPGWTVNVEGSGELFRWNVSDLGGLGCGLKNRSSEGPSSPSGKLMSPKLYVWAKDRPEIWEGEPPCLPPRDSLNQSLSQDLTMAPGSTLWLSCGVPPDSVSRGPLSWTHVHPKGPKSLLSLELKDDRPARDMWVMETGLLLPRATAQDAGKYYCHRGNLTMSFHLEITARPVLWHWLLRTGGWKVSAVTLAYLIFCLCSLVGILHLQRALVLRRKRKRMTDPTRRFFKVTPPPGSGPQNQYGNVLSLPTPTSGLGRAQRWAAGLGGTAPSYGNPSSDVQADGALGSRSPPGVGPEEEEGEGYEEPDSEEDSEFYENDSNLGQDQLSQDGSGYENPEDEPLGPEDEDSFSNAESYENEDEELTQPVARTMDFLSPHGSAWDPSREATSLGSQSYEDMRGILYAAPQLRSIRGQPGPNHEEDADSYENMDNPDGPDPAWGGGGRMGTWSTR
Assay: FACS on CHO-K1-human CD19 cells
Strictly below 1 nM in EC50: Criterion met. Otherwise: Criterion not met.

binder | assigned class
F3.23.10 (antibody, human IgG1, V domains shown, human-murine chimeric antibody, human IgG1) VH: EFQLQQSGPELVKPGASVKISCKASDYSFTDYNMNWVKQSNGASLEWIGIINPNFGSTSYNQKFKGKATLTVDQSSSTAFMQLNSLTSEDSAVYYCARSEYYGSSGFAYWGQGTLVTVSA VL: DVVVTQTPLSLPVSFGDQVSISCRSSQSLVNSYGNTYLSWYLHKPGQSPQLLIYGISNRFSGVPDRFSGSGSGTDFTLKITTIKPEDLGMYYCLQGTHQPWTFGGGTKLEIK | Criterion not met
F5.3.6 (antibody, human IgG1, V domains shown, human-murine chimeric antibody, human IgG1) VH: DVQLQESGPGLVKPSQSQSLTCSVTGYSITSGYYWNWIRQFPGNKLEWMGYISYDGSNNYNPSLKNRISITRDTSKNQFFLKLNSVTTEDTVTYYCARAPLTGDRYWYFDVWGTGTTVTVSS VL: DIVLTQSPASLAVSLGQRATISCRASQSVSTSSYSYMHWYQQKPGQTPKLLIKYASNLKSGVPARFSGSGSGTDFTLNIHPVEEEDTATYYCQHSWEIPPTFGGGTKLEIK | Criterion not met
F3.113.16 (antibody, human IgG1, V domains shown, human-murine chimeric antibody, human IgG1) VH: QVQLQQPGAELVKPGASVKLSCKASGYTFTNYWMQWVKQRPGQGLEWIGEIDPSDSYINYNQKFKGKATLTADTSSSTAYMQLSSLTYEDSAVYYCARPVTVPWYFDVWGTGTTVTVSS VL: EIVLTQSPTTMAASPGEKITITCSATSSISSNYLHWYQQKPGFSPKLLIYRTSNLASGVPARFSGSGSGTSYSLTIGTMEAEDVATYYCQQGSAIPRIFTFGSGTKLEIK | Criterion met
F4.82.11 (antibody, human IgG1, V domains shown, human-murine chimeric antibody, human IgG1) VH: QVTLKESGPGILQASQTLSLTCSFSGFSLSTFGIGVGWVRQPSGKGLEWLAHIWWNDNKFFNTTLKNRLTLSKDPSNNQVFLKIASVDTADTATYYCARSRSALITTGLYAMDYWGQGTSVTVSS VL: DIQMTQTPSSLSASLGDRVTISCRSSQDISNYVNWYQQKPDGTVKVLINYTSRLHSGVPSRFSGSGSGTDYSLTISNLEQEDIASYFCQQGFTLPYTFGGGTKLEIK | Criterion met
F5.8.6 (antibody, human IgG1, V domains shown, human-murine chimeric antibody, human IgG1) VH: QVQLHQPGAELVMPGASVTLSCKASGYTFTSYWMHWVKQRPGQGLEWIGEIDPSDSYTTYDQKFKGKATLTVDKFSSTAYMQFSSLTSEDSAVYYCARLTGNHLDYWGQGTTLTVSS VL: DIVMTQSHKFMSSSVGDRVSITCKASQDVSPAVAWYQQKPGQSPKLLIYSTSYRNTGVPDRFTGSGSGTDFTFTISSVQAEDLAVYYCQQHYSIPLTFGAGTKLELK | Criterion not met
F4.41.1 (antibody, human IgG1, V domains shown, human-murine chimeric antibody, human IgG1) VH: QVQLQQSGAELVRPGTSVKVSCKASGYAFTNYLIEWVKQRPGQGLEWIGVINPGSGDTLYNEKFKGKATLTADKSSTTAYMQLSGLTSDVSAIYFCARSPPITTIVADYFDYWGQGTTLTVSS VL: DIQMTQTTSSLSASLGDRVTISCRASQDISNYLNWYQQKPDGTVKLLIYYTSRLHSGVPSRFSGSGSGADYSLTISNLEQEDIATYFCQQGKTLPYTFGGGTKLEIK | Criterion not met
F4.58.6 (antibody, human IgG1, V domains shown, human-murine chimeric antibody, human IgG1) VH: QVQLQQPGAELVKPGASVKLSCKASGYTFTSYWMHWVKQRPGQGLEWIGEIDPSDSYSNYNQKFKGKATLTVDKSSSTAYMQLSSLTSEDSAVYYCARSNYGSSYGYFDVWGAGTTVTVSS VL: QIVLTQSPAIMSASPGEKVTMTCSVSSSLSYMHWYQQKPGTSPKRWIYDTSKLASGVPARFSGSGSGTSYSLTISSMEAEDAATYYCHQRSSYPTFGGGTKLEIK | Criterion not met
F4.22.6 (antibody, human IgG1, V domains shown, human-murine chimeric antibody, human IgG1) VH: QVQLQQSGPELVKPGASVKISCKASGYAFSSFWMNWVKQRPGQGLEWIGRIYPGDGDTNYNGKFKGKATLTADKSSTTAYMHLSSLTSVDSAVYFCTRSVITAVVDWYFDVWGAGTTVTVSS VL: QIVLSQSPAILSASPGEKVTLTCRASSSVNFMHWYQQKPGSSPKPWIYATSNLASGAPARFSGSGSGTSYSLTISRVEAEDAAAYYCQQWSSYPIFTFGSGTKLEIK | Criterion met
F4.18.13 (antibody, human IgG1, V domains shown, human-murine chimeric antibody, human IgG1) VH: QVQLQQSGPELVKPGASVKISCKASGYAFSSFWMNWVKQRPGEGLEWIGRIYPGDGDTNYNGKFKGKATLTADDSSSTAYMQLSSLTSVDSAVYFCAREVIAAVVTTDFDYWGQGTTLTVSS VL: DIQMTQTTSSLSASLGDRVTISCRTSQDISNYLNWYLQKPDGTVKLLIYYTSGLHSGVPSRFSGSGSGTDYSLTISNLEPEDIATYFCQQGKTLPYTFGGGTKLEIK | Criterion met
